Tested on: DU-145
PROCEDURE TEXT: Antiproliferative activity against human DU145 cells measured after 72 hrs by EZ-Cytox assay
Assay type: functional, cell-based
CONDITION SUMMARY: DU-145, 72 h
Each record here notes measured IC50.
Expressed in nM, but write only the number.

Oc1ccc(-c2cc(-c3ccccc3F)nc3c2Cc2c(O)cccc2-3)cc1	1810
Oc1ccc(-c2cc(-c3ccccc3)nc3c2Cc2c(O)cccc2-3)cc1	1280

Could you now consider this next compound?
Would you kindly share the measured IC50 for `Oc1ccc(-c2cc(-c3ccc(Cl)cc3)c3c(n2)-c2cc(O)ccc2C3)cc1` ? 1740

###

MEASURED TARGET: DNA topoisomerase 2-alpha (Homo sapiens) (UniProt P11388)
Sequence (P11388 whole entry): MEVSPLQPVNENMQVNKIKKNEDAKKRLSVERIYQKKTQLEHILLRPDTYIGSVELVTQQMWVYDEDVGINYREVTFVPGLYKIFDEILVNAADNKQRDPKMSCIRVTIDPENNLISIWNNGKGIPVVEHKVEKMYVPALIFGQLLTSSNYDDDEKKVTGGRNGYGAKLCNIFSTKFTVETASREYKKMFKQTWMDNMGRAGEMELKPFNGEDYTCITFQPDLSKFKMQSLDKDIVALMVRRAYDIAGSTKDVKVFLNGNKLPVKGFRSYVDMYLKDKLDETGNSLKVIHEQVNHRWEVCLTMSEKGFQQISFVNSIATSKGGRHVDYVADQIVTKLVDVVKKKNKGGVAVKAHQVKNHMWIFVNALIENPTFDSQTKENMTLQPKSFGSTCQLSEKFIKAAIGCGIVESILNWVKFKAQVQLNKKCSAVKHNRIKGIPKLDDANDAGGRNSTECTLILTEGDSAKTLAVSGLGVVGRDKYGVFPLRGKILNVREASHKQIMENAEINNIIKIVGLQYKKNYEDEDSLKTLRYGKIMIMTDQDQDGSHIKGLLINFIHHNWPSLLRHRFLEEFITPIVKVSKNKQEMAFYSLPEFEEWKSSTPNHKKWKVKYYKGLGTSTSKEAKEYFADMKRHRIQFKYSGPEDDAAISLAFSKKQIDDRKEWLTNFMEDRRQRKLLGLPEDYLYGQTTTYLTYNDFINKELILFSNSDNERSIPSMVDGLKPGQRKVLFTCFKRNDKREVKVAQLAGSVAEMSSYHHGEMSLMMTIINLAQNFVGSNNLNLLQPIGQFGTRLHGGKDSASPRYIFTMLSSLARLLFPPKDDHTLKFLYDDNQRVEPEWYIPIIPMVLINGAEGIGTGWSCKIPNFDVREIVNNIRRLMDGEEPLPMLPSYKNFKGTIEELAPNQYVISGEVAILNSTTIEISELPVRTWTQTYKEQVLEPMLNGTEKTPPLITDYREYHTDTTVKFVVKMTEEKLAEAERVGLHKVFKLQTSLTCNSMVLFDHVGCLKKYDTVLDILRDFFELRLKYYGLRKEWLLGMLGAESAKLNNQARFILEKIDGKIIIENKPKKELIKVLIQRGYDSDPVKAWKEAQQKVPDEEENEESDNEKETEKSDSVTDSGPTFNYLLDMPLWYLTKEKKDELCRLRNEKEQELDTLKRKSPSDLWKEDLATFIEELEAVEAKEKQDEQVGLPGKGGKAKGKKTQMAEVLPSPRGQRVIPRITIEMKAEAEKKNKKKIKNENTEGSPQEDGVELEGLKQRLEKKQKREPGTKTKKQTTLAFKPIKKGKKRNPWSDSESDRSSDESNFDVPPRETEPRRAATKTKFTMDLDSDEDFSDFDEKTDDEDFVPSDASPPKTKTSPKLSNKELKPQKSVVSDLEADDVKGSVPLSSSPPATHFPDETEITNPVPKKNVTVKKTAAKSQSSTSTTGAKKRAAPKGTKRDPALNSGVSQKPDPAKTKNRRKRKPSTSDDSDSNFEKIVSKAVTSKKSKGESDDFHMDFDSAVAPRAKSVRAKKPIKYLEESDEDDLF
PROCEDURE TEXT: Inhibition of recombinant human topoisomerase 2alpha-mediated relaxation of supercoiled pBR322 DNA at 100 uM measured after 30 mins by ethidium bromide staining based agarose gel electrophoresis relative to control
Output True for inhibition not less than 70%; output False otherwise.

Use the examples below as a reference point.
Oc1cccc(-c2cc(-c3cccc(F)c3)nc3c2Cc2cccc(O)c2-3)c1	False
Oc1ccc2c(c1)-c1nc(-c3ccccc3)cc(-c3ccccc3O)c1C2	True
Oc1cccc(-c2cc(-c3ccccc3)nc3c2Cc2c(O)cccc2-3)c1	True
Oc1ccc(-c2cc(-c3ccccc3F)nc3c2Cc2c(O)cccc2-3)cc1	False
Oc1cccc(-c2cc(-c3ccccc3Cl)nc3c2Cc2ccc(O)cc2-3)c1	True
Oc1ccc2c(c1)-c1nc(-c3ccccc3O)cc(-c3ccccc3)c1C2	False
Oc1cccc(-c2cc(-c3ccccc3C(F)(F)F)nc3c2Cc2cccc(O)c2-3)c1	False
Oc1cccc(-c2cc(-c3ccc(C(F)(F)F)cc3)nc3c2Cc2c(O)cccc2-3)c1	False

Confirm if inhibition reported for the compound `Oc1cccc(-c2cc(-c3cccc(F)c3)nc3c2Cc2cc(O)ccc2-3)c1` is 70% or above. False

API: above_or_equal(metric=inhibition, cutoff=70%) for item `Oc1ccccc1-c1cc(-c2ccccc2)c2c(n1)-c1cccc(O)c1C2` False

State whether the measured inhibition reaches 70%, counting equality as reaching it, for `Oc1ccccc1-c1cc(-c2ccc(C(F)(F)F)cc2)nc2c1Cc1c(O)cccc1-2` True

Hi, just wondering whether `Oc1ccc2c(c1)Cc1c(-c3ccccc3)cc(-c3ccccc3)nc1-2` shows inhibition of 70% or higher. False

###

System: HeLa
PROCEDURE TEXT: Antiproliferative activity against human HeLa cells measured after 72 hrs by EZ-Cytox assay
Format: functional, cell-based
pIC50: −log10 of the molar value.
Recorded pIC50 for the following compounds

Oc1ccc(-c2cc(-c3ccccc3F)nc3c2Cc2ccc(O)cc2-3)cc1	< 4.30

Query pIC50 on HeLa for `Oc1ccccc1-c1cc(-c2ccc(Cl)cc2)c2c(n1)-c1cccc(O)c1C2` < 4.30

Please provide the recorded pIC50 for `Oc1ccccc1-c1cc(-c2ccc(Cl)cc2)c2c(n1)-c1c(O)cccc1C2` , tested on HeLa. < 4.30

###

# inhibition per entry
MEASURED TARGET: UniProt P11388
PROCEDURE TEXT: Inhibition of recombinant human topoisomerase 2alpha-mediated relaxation of supercoiled pBR322 DNA at 100 uM measured after 30 mins by ethidium bromide staining based agarose gel electrophoresis relative to control
The answer is to be given in %; state only the numeric part.

// returns reported inhibition for input `Oc1cccc(-c2cc(-c3ccc(Cl)cc3)c3c(n2)-c2cc(O)ccc2C3)c1` 80.4

###

MEASURED TARGET: DNA topoisomerase 1 (Homo sapiens) (UniProt P11387)
Sequence (P11387 whole entry): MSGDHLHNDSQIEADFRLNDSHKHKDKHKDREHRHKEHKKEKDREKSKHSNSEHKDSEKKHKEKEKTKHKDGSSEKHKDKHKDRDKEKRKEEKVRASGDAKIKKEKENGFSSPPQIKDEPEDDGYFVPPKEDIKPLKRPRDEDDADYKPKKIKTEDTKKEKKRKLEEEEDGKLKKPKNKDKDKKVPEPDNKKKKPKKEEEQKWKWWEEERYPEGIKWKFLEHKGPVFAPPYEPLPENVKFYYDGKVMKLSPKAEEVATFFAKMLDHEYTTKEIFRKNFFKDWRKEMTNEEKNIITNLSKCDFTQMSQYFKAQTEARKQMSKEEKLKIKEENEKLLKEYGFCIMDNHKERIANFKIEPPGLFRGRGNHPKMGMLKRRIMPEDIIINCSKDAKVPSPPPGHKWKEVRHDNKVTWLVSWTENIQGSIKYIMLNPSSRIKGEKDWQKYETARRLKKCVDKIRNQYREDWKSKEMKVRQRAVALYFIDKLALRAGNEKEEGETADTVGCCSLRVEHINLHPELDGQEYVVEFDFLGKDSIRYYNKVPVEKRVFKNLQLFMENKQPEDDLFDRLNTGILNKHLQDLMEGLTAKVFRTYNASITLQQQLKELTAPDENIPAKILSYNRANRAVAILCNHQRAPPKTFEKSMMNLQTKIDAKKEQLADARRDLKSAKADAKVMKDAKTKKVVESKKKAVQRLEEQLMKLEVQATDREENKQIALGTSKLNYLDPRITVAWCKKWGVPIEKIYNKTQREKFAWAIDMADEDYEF
PROCEDURE TEXT: Inhibition of recombinant human topoisomerase 1-mediated relaxation of supercoiled pBR322 DNA at 100 uM measured after 30 mins by ethidium bromide staining based agarose gel electrophoresis relative to control
inhibition listing for selected compounds.
All answers are understood in %, so give the number only.

Example cases with answers are listed next.
Oc1ccc2c(c1)-c1nc(-c3ccccc3F)cc(-c3ccccc3O)c1C2	0
Oc1cccc(-c2cc(-c3ccccc3Cl)c3c(n2)-c2c(O)cccc2C3)c1	79.3
Oc1cccc(-c2cc(-c3cccc(F)c3)nc3c2Cc2cc(O)ccc2-3)c1	17.5

Param readout= inhibition; system= DNA topoisomerase 1 (Homo sapiens) (UniProt P11387); entry= `Oc1cccc(-c2cc(-c3ccc(F)cc3)nc3c2Cc2cc(O)ccc2-3)c1` ; returns value. 22.3

Can you look up inhibition on DNA topoisomerase 1 (Homo sapiens) (UniProt P11387) for `Oc1cccc(-c2cc(-c3ccc(Cl)cc3)c3c(n2)-c2cc(O)ccc2C3)c1` ? 7.3

###

System: DU-145
PROCEDURE TEXT: Antiproliferative activity against human DU145 cells measured after 72 hrs by EZ-Cytox assay
Assay type: functional, cell-based
CONDITION SUMMARY: DU-145, 72 h
Catalogue of compounds with associated pIC50
Please report pIC50 as the negative decimal logarithm of the molar concentration, giving only the number.

Example compounds with recorded pIC50:
Oc1ccc2c(c1)Cc1c(-c3ccccc3O)cc(-c3ccccc3Cl)nc1-2	5.82
Oc1cccc(-c2cc(-c3ccc(F)cc3)nc3c2Cc2ccc(O)cc2-3)c1	5.97

Please find the next compound below.
Param item = `Oc1ccc(-c2cc(-c3ccc(Cl)cc3)c3c(n2)-c2ccc(O)cc2C3)cc1` ; retrieve measured pIC50. 5.84

###

System: DU-145
PROCEDURE TEXT: Antiproliferative activity against human DU145 cells measured after 72 hrs by EZ-Cytox assay
Assay type: functional, cell-based
CONDITION SUMMARY: DU-145, 72 h
// reported pIC50 for each item listed
// pIC50 here means minus log10 of the molar concentration (mol/L)

Could you share which pIC50 value was measured for `Oc1ccc(-c2cc(-c3ccc(Cl)cc3)nc3c2Cc2cc(O)ccc2-3)cc1` ? 5.72

###

MEASURED TARGET: DNA topoisomerase 1 (Homo sapiens)
PROCEDURE TEXT: Inhibition of recombinant human topoisomerase 1-mediated relaxation of supercoiled pBR322 DNA at 100 uM measured after 30 mins by ethidium bromide staining based agarose gel electrophoresis relative to control
Lab note: compare inhibition against 10%. Equal or greater, write T. Smaller, write F.

Some entries whose results are on file:
Oc1ccc(-c2cc(-c3ccc(F)cc3)nc3c2Cc2cc(O)ccc2-3)cc1	F
Oc1ccc(-c2cc(-c3ccc(Cl)cc3)nc3c2Cc2c(O)cccc2-3)cc1	F
Oc1ccc(-c2cc(-c3ccccc3C(F)(F)F)nc3c2Cc2c(O)cccc2-3)cc1	F
Oc1ccc(-c2cc(-c3ccc(F)cc3)nc3c2Cc2c(O)cccc2-3)cc1	T
Oc1ccc2c(c1)Cc1c(-c3ccccc3O)cc(-c3ccc(Cl)cc3)nc1-2	T
Oc1ccc(-c2cc(-c3ccccc3)nc3c2Cc2c(O)cccc2-3)cc1	F

Dear colleague, could you confirm whether `Oc1ccc(-c2cc(-c3ccccc3Cl)c3c(n2)-c2cccc(O)c2C3)cc1` has inhibition at or above 10%? T

###

Test system: HeLa
PROCEDURE TEXT: Antiproliferative activity against human HeLa cells measured after 72 hrs by EZ-Cytox assay
Format: functional, cell-based
Doc: threshold 4 µM (exclusive). Items with IC50 beneath it return true (1); others return false (0).

Oc1ccc2c(c1)Cc1c(-c3ccccc3)cc(-c3ccccc3)nc1-2	false (0)
Oc1ccc(-c2cc(-c3cccc(F)c3)nc3c2Cc2cc(O)ccc2-3)cc1	false (0)
Oc1ccccc1-c1cc(-c2cccc(C(F)(F)F)c2)nc2c1Cc1cccc(O)c1-2	false (0)
Oc1cccc(-c2cc(-c3cccc(Cl)c3)c3c(n2)-c2ccc(O)cc2C3)c1	false (0)
Oc1cccc(-c2cc(-c3ccc(Cl)cc3)nc3c2Cc2ccc(O)cc2-3)c1	true (1)
Oc1ccc(-c2cc(-c3cccc(Cl)c3)nc3c2Cc2ccc(O)cc2-3)cc1	false (0)

Consider the record given below.
Dear colleague, could you confirm whether IC50 of `Oc1ccc(-c2cc(-c3ccc(Cl)cc3)nc3c2Cc2cc(O)ccc2-3)cc1` falls below 4 µM? Thanks. true (1)

###

Test system: HeLa
PROCEDURE TEXT: Antiproliferative activity against human HeLa cells measured after 72 hrs by EZ-Cytox assay
Format: functional, cell-based
Threshold 4 µM. IC50 below it: YES. IC50 at it or above: NO.

Oc1ccc2c(c1)Cc1c(-c3ccccc3)cc(-c3ccccc3O)nc1-2	NO

Would you kindly verify if IC50 of `Oc1ccc2c(c1)Cc1c(-c3ccc(Cl)cc3)cc(-c3ccccc3O)nc1-2` is strictly less than 4 µM? NO

# TODO verify IC50 < 4 µM strictly for this molecule: `Oc1ccc(-c2cc(-c3ccccc3)nc3c2Cc2cccc(O)c2-3)cc1` NO

I'd appreciate it if you could check whether `Oc1cccc(-c2cc(-c3ccccc3Cl)nc3c2Cc2ccc(O)cc2-3)c1` has IC50 smaller than 4 µM. NO

Strictly below 4 µM: is that where IC50 of `Oc1ccc(-c2cc(-c3cccc(C(F)(F)F)c3)nc3c2Cc2c(O)cccc2-3)cc1` sits? NO

Field: below-cutoff. Rule: recorded IC50 strictly less than 4 µM. Subject: `Oc1cccc(-c2cc(-c3cccc(F)c3)nc3c2Cc2ccc(O)cc2-3)c1` YES

Decide: IC50 of `Oc1cccc(-c2cc(-c3ccccc3Cl)nc3c2Cc2cc(O)ccc2-3)c1` strictly below 4 µM? YES

Given `Oc1ccc(-c2cc(-c3cccc(Cl)c3)nc3c2Cc2cc(O)ccc2-3)cc1` , is recorded IC50 strictly lower than 4 µM? YES
